# System: NCI-H322M lung
# Protocol summary: NCI-60 one-dose screen, 48 h
# Particulars: 10 µM unless noted
This is part of a sample that, as a whole, favours compounds with a hit. Of some 83,000 tested, about 20% had one in any assay. Calls of active or inactive are those of the source. How the source made its calls: active means growth percent below 10; inactive means the rest.
Your reply should match one of these outcome classes. YES (active), NO (inactive)

// below: answered compounds
CC1Cc2c(Cl)ncnc2N(C)c2ccc(Cl)cc21 (centres undefined): NO
CN(C)c1ccc(-c2ccc(-c3ccc(C(=N)N)cc3)s2)cc1: NO
CC(C)C1=NOC(=O)C1=Cc1cn(-c2ccccc2)nc1-c1ccc(Cl)cc1: NO
CC1(C)CC[C@]23CC[C@]4(C)[C@H](CC[C@@H]5[C@@]6(C)C/C(=C/c7cccnc7)C(=O)C(C)(C)[C@@H]6CC[C@]54C)[C@H]2[C@H]1OC3=O: NO
CCN=Cc1c(O)c(O)c(C(C)C)c2cc(C)c(-c3c(C)cc4c(C(C)C)c(O)c(O)c(C=NCC)c4c3O)c(O)c12: NO
C[C@]12CCc3nc(Nc4ccccc4)sc3C1=CC[C@@H]1[C@@H]2CC[C@]2(C)/C(=N/NC(N)=S)CC[C@@H]12: NO
Fc1cc2[nH]ncc2c2c3c(c(-c4cn[nH]c4C(F)(F)F)nc12)C1CCC3C1 (centres undefined): YES
O=C(CCNCc1ccccc1)c1ccccc1: NO
Cc1cc(N2CCCCCC2)nc(N2CCN(CC(=O)Nc3ccc4c(ccn4Cc4ccccc4)c3)CC2)n1: NO
N#Cc1ccc(-c2ccc(COc3ccc(CC4SC(=O)NC4=O)cc3)cc2)cc1 (centres undefined): NO

Asked: For CC1Cc2ccc(OCCN(C)C)cc2C1=O (centres undefined) , which call appears in the assay record?
Given back: NO

Asked: Just curious, what result did O=C1COCCN1c1ccc(Nc2nc(Cl)nc(N3CCOCC3)n2)cc1 get here?
Given back: NO

Asked: For this compound, state the assay outcome: C[N+](C)(C)c1ncnc2[n-]cnc12
Given back: NO

Asked: Returns: the outcome recorded for CCn1cc(-c2ccnc(NCCNS(=O)(=O)c3ccc(Br)cc3)c2)c(-c2cccc(OC)c2)n1 in this assay.
Given back: NO

Asked: For CC1(C)CC[C@]2(C(=O)O)CC[C@]3(C)C(=CC[C@@H]4[C@@]5(C)C/C(=C/c6ccco6)C(=O)C(C)(C)[C@@H]5CC[C@]43C)[C@@H]2C1 , which call appears in the assay record?
Given back: YES

Asked: Could you please tell me the result logged for CC(C)[C@H]1COC(=O)N1[C@@H]1C(=O)N([C@@H](CCC(=O)N2CCN(C3CCCC3)CC2)C(=O)N[C@@H]2CCCc3ccccc32)[C@@H]1/C=C/c1cccc(Cl)c1 in this assay?
Given back: NO

Asked: Kindly provide the recorded test outcome for the following compound: O=C(O)c1ccccc1C(F)(F)F
Given back: NO

Asked: Call for entry O=C(NCCCCCCCNC(=O)OCc1ccc2c(Cl)cc(Cl)c(O)c2n1)OCc1ccc2c(Cl)cc(Cl)c(O)c2n1 :
Given back: NO

Asked: What outcome does the record of this test show for CCCC(NC(=O)OCc1ccccc1)C(=O)O (centres undefined) ?
Given back: NO
